- Test Name: U.S. Phase Ia trial of Compound A monotherapy: pharmacokinetics
- Type: in vivo
- Assay Context: human, plasma, oral, 100 mg, Compound A Plasma Level, Day 1, 100 mg, 1 h
Experimental Endpoint: concentration at 1 h (ng/mL)
# value in ng/mL; strip the unit string

[in] For the molecule shown here, C=CC(=O)N1CC[C@@H](n2nc(-c3ccc(Oc4c(F)c(F)cc(F)c4F)cc3F)c3c(N)ncnc32)C1 , give the reported concentration at 1 h.
[out] 53.3
